Give IC50 for every item shown.
Target: wild-type Epidermal Growth Factor Receptor (EGFR) (Homo sapiens (Human))
Sequence (P00533 669-1210): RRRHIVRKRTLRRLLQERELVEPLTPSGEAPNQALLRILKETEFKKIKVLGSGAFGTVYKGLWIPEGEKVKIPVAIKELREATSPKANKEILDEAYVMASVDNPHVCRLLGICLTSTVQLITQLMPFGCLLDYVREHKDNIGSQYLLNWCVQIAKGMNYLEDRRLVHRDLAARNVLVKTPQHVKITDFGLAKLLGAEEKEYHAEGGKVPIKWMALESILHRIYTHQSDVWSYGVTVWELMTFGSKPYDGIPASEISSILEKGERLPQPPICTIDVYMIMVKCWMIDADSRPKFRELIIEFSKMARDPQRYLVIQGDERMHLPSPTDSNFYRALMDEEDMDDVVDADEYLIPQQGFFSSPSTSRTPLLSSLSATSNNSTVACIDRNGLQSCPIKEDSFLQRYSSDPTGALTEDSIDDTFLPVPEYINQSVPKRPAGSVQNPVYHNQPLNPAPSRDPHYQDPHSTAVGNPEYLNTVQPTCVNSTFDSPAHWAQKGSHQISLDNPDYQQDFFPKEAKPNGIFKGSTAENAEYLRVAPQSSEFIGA
Experiment: WT-EGFR Kinase Assay (TR-FRET, 2 mM ATP)
Type: biochemical
Settings: EGFR Wildtyp 2 mM ATP IC50 [mol/l] (median), median or individual measurements
Text: Inhibitory activity of compounds of the present invention against wild-type Epidermal Growth Factor Receptor (EGFR) was quantified employing the TR-FRET based EGFR assay as described in the following paragraphs. Recombinant fusion protein of N-terminal Glutathion-S-Transferase (GST) and a fragment of human EGFR (amino acids R669 to A1210), expressed in Sf9 insect cells and purified via affinity chromatography using Glutathion Sepharose as described above, was used as kinase. […]

Incoming: Return reported IC50; argument: Cc1ccc(-c2c(-c3ccnc(NC(=O)C(C)c4ccc(F)cc4)c3)[nH]c3c2C(=O)NC(C)(C)C3)cc1 (racemic)
Outgoing: > 20 µM

Incoming: Return reported IC50; argument: CC(C(=O)Nc1cc(-c2[nH]c3ccn(C)c(=O)c3c2-c2ccccc2O)ccn1)c1ccc(F)cc1 (racemic)
Outgoing: > 20 µM

Incoming: Return reported IC50; argument: Cc1ccccc1-c1c(-c2ccnc(NC(=O)C(C)c3ccc(F)cc3)c2)[nH]c2ccn(C)c(=O)c12 (racemic)
Outgoing: > 20 µM

Incoming: Return reported IC50; argument: CC(C(=O)Nc1cc(-c2[nH]c3ccn(C)c(=O)c3c2-c2cc(F)c(F)c(F)c2)ccn1)c1ccc(F)cc1 (racemic)
Outgoing: > 20 µM

Incoming: Return reported IC50; argument: CC(C(=O)Nc1cc(-c2[nH]c3c(c2-c2ccc(F)cc2F)C(=O)N(C)CC3)ccn1)c1ccc(F)cc1 (single isomer, unassigned) [Example 70]
Outgoing: > 20 µM

Incoming: Return reported IC50; argument: Cc1cn(C)c(=O)c2c(-c3ccc(F)cc3)c(-c3ccnc(NC(=O)C(CC(F)F)c4ccc(F)cc4)c3)[nH]c12 (single isomer, unassigned; (-)) [Example 035]
Outgoing: > 20 µM

Incoming: Return reported IC50; argument: CC(C(=O)Nc1cc(-c2[nH]c3ccn(C)c(=O)c3c2-c2ccc(Cl)s2)ccn1)c1ccc(F)cc1 (racemic)
Outgoing: > 5.71 µM

Incoming: Return reported IC50; argument: CC(C(=O)Nc1cc(-c2[nH]c3ccn(C)c(=O)c3c2-c2ccccc2C#N)ccn1)c1ccc(F)cc1 (racemic)
Outgoing: > 20 µM

Incoming: Return reported IC50; argument: CN1C(=O)c2c([nH]c(-c3ccnc(NC(=O)C(CC(F)F)c4ccc(F)cc4)c3)c2-c2ccc(F)cc2)CC12CC2 (racemic)
Outgoing: > 20 µM

Incoming: Return reported IC50; argument: CC1(C)Cc2[nH]c(-c3ccnc(NC(=O)Cc4ccc(F)cc4)c3)c(-c3ccccc3F)c2C(=O)N1
Outgoing: > 20 µM

Incoming: Return reported IC50; argument: CN1CCc2[nH]c(-c3ccnc(NC(=O)C(CC(F)F)c4ccc(F)cc4)c3)c(-c3ccc(F)cc3)c2C1=O (racemic)
Outgoing: > 20 µM

Incoming: Return reported IC50; argument: CC(C(=O)Nc1cc(-c2[nH]c3ccn(C)c(=O)c3c2-c2ccccc2Cl)ccn1)c1ccc(F)cc1 (racemic)
Outgoing: > 20 µM

Incoming: Return reported IC50; argument: CC(C(=O)Nc1cc(-c2[nH]c3c(CC(F)(F)F)cn(C)c(=O)c3c2-c2ccccc2)ccn1)c1ccc(F)cc1 (racemic) [Example 014]
Outgoing: > 20 µM

* * *

Read-out record for CSNK1D (Homo sapiens (Human), UniProt P48730): log10 of IC50
Transform log10 | Measure IC50 | Unit nM

Incoming: Request body: readout log10 of IC50, system CSNK1D (Homo sapiens (Human), UniProt P48730), query O=C(Cc1ccc(F)cc1)Nc1cc(-c2[nH]c3ccn(C4CC4)c(=O)c3c2-c2ccccc2)ccn1 [Example 159] . Return the value.
Outgoing: 0.20

Incoming: Request body: readout log10 of IC50, system CSNK1D (Homo sapiens (Human), UniProt P48730), query Cc1cn(C)c(=O)c2c(-c3ccccc3)c(-c3ccnc(NC(=O)C(CC(F)F)c4ccc(F)cc4)c3)[nH]c12 (racemic) [Example 40] . Return the value.
Outgoing: 0.60

Incoming: Request body: readout log10 of IC50, system CSNK1D (Homo sapiens (Human), UniProt P48730), query CC1(C)CNC(=O)c2c1[nH]c(-c1ccnc(NC(=O)C(CC(F)F)c3ccc(F)cc3)c1)c2-c1ccccc1 (single isomer, unassigned) [Example 44] . Return the value.
Outgoing: 1.08

Incoming: Request body: readout log10 of IC50, system CSNK1D (Homo sapiens (Human), UniProt P48730), query CC(C(=O)Nc1cc(-c2[nH]c3c(c2-c2cccnc2)C(=O)NC(C)(C)C3)ccn1)c1ccc(F)cc1 (racemic) [Example 97] . Return the value.
Outgoing: 1.15

Incoming: Request body: readout log10 of IC50, system CSNK1D (Homo sapiens (Human), UniProt P48730), query Cn1cc(CC(F)(F)F)c2[nH]c(-c3ccnc(NC(=O)C(CC(F)F)c4ccc(F)cc4)c3)c(-c3ccccc3)c2c1=O (single isomer, unassigned; (+)) [Example 20] . Return the value.
Outgoing: 1.08

Incoming: Request body: readout log10 of IC50, system CSNK1D (Homo sapiens (Human), UniProt P48730), query CC(C(=O)Nc1cc(-c2[nH]c3ccn(C)c(=O)c3c2-c2cccc(O)c2)ccn1)c1ccc(F)cc1 (racemic) [Example 113] . Return the value.
Outgoing: 1.52

* * *

Give pIC50 for every item shown.
Scale: pIC50 equals -log10([C]), with [C] in mol/L.

Incoming: Request body: readout pIC50, system CSNK1A1 (Homo sapiens (Human)), query CC(C(=O)Nc1cc(-c2[nH]c3ccn(C)c(=O)c3c2-c2ccc(F)cc2)ccn1)c1ccc(F)cc1 (single isomer, unassigned; (+)) [Example 102] . Return the value.
Outgoing: 9.00

Incoming: Request body: readout pIC50, system CSNK1A1 (Homo sapiens (Human)), query CN1C(=O)c2c([nH]c(-c3ccnc(NC(=O)C(CC(F)F)c4ccc(F)cc4)c3)c2-c2ccccc2)CC12CCC2 (single isomer, unassigned; (+)) [Example 51] . Return the value.
Outgoing: 8.74

Incoming: Request body: readout pIC50, system CSNK1A1 (Homo sapiens (Human)), query Cc1ccc(-c2c(-c3ccnc(NC(=O)Cc4ccc(F)cc4)c3)[nH]c3c2C(=O)NC(C)(C)C3)cc1 . Return the value.
Outgoing: 8.35

Incoming: Request body: readout pIC50, system CSNK1A1 (Homo sapiens (Human)), query CC1CN(C)C(=O)c2c1[nH]c(-c1ccnc(NC(=O)C(CC(F)F)c3ccc(F)cc3)c1)c2-c1ccccc1 (stereo not drawn) . Return the value.
Outgoing: 8.52

Incoming: Request body: readout pIC50, system CSNK1A1 (Homo sapiens (Human)), query CC(C(=O)Nc1cc(-c2[nH]c3ccn(C)c(=O)c3c2-c2ccco2)ccn1)c1ccc(F)cc1 (racemic) . Return the value.
Outgoing: 8.48

Incoming: Request body: readout pIC50, system CSNK1A1 (Homo sapiens (Human)), query Cn1cc(CC2CC2)c2[nH]c(-c3ccnc(NC(=O)C(CC(F)F)c4ccc(F)cc4)c3)c(-c3ccccc3)c2c1=O (racemic) . Return the value.
Outgoing: 7.82

* * *

Reported property: IC50 (nM)
The figure you give is taken to be in nM; do not add the unit.

Incoming: Request body: readout IC50, system UniProt:P48729, query CN1CC(CC2CC2)c2[nH]c(-c3ccnc(NC(=O)Cc4ccc(F)cc4)c3)c(-c3ccccc3)c2C1=O (racemic) [Example 55] . Return the value.
Outgoing: 2

Incoming: Request body: readout IC50, system UniProt:P48729, query O=C(Nc1cc(-c2[nH]c3ccn(C4CC4)c(=O)c3c2-c2ccccc2)ccn1)C(CC(F)F)c1ccc(F)cc1 (single isomer, unassigned) [Example 157] . Return the value.
Outgoing: 2

Incoming: Request body: readout IC50, system UniProt:P48729, query CC(C(=O)Nc1cc(-c2[nH]c3ccn(C)c(=O)c3c2-c2ccccc2O)ccn1)c1ccc(F)cc1 (racemic) [Example 124] . Return the value.
Outgoing: 5.6

* * *

Give pIC50 for every item shown.
Target: CSNK1D (Homo sapiens (Human), UniProt P48730)
Sequence (P48730 whole entry): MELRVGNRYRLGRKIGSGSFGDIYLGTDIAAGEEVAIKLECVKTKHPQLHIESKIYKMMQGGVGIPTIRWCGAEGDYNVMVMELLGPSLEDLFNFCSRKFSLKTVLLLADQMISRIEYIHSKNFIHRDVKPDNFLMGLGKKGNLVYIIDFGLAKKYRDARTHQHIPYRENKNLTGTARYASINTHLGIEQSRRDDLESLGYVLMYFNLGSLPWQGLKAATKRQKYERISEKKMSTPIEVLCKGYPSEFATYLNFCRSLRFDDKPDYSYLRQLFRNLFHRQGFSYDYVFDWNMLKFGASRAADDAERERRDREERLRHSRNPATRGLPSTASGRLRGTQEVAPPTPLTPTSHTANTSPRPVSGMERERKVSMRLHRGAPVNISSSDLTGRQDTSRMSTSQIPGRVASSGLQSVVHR
Scale: pIC50 equals -log10([C]), with [C] in mol/L.

Incoming: Return reported pIC50; argument: CC1(C)CNC(=O)c2c1[nH]c(-c1ccnc(NC(=O)Cc3ccc(F)cc3)c1)c2-c1ccccc1 [Example 42]
Outgoing: 8.68

Incoming: Return reported pIC50; argument: CC(C(=O)Nc1cc(-c2[nH]c3ccn(C)c(=O)c3c2-c2ccco2)ccn1)c1ccc(F)cc1 (racemic) [Example 116]
Outgoing: 8.11

Incoming: Return reported pIC50; argument: CC1(C)CNC(=O)c2c1[nH]c(-c1ccnc(NC(=O)C(CC(F)F)c3ccc(F)cc3)c1)c2-c1ccccc1 (racemic) [Example 43]
Outgoing: 8.57

Incoming: Return reported pIC50; argument: Cc1cn(C)c(=O)c2c(-c3ccc(F)cc3)c(-c3ccnc(NC(=O)C(C)c4ccc(F)cc4)c3)[nH]c12 (single isomer, unassigned; (+)) [Example 32]
Outgoing: 8.44

Incoming: Return reported pIC50; argument: CC(C(=O)Nc1cc(-c2[nH]c3c(c2-c2ccc(F)cc2)C(=O)NC(C)(C)C3)ccn1)c1ccc(F)cc1 (racemic) [Example 94]
Outgoing: 8.49

Incoming: Return reported pIC50; argument: CC(C(=O)Nc1cc(-c2[nH]c3c(c2-c2ccccc2)C(=O)NCC3(C)C)ccn1)c1ccc(F)cc1 (single isomer, unassigned) [Example 48]
Outgoing: 8.54

Incoming: Return reported pIC50; argument: O=C(Nc1cc(-c2[nH]c3ccn(C4CC4)c(=O)c3c2-c2ccccc2)ccn1)C(CC(F)F)c1ccc(F)cc1 (single isomer, unassigned) [Example 157]
Outgoing: 8.64

Incoming: Return reported pIC50; argument: CC(C(=O)Nc1cc(-c2[nH]c3c(c2-c2ccccc2)C(=O)N(C)CC3)ccn1)c1ccncc1 (single isomer, unassigned) [Example 155]
Outgoing: 8.70

Incoming: Return reported pIC50; argument: O=C(Nc1cc(-c2[nH]c3ccn(C4CC4)c(=O)c3c2-c2ccc(F)cc2)ccn1)C(CC(F)F)c1ccc(F)cc1 (racemic) [Example 134]
Outgoing: 8.15

Incoming: Return reported pIC50; argument: CN1CC(CC2CC2)c2[nH]c(-c3ccnc(NC(=O)C(CC(F)F)c4ccc(F)cc4)c3)c(-c3ccccc3)c2C1=O (stereo not shown) [Example 59]
Outgoing: 8.44

Incoming: Return reported pIC50; argument: Cn1ccc2[nH]c(-c3ccnc(NC(=O)C(CC(F)F)c4ccc(F)cc4)c3)c(-c3cccnc3)c2c1=O (racemic) [Example 118]
Outgoing: 7.92

Incoming: Return reported pIC50; argument: CC(C(=O)Nc1cc(-c2[nH]c3c(c2-c2ccc(F)cc2)C(=O)N(C)CC3CC2CC2)ccn1)c1ccc(F)cc1 (stereo not shown) [Example 62]
Outgoing: 8.40

Incoming: Return reported pIC50; argument: CC1CN(C)C(=O)c2c1[nH]c(-c1ccnc(NC(=O)C(C)c3ccc(F)cc3)c1)c2-c1ccc(F)cc1 (stereo not shown) [Example 29]
Outgoing: 8.39

Incoming: Return reported pIC50; argument: CC(C(=O)Nc1cc(-c2[nH]c3c(CC(F)(F)F)cn(C)c(=O)c3c2-c2ccccc2)ccn1)c1ccc(F)cc1 (single isomer, unassigned; (-)) [Example 16]
Outgoing: 8.36

Incoming: Return reported pIC50; argument: Cc1ccc(-c2c(-c3ccnc(NC(=O)C(C)c4ccc(F)cc4)c3)[nH]c3ccn(C)c(=O)c23)s1 (racemic) [Example 125]
Outgoing: 8.23

Incoming: Return reported pIC50; argument: CC(C(=O)Nc1cc(-c2[nH]c3c(CC(F)(F)F)cn(C)c(=O)c3c2-c2ccc(F)cc2)ccn1)c1ccc(F)cc1 (single isomer, unassigned; (+)) [Example 24]
Outgoing: 8.40

Incoming: Return reported pIC50; argument: O=C1NCCc2[nH]c(-c3ccnc(NC(=O)C(CC(F)F)c4ccc(F)cc4)c3)c(-c3ccccc3)c21 (racemic) [Example 75]
Outgoing: 8.35

Incoming: Return reported pIC50; argument: CC(C(=O)Nc1cc(-c2[nH]c3c(CC(F)(F)F)cn(C)c(=O)c3c2-c2ccccc2)ccn1)c1ccc(F)cc1 (racemic) [Example 14]
Outgoing: 8.57

Incoming: Return reported pIC50; argument: CN1CC(CC2CC2)c2[nH]c(-c3ccnc(NC(=O)C(CC(F)F)c4ccc(F)cc4)c3)c(-c3ccc(F)cc3)c2C1=O (stereo not shown) [Example 64]
Outgoing: 8.32

Incoming: Return reported pIC50; argument: CC(C(=O)Nc1cc(-c2[nH]c3ccn(C)c(=O)c3c2-c2cccs2)ccn1)c1ccc(F)cc1 (racemic) [Example 130]
Outgoing: 8.41

Incoming: Return reported pIC50; argument: CN1CCc2[nH]c(-c3ccnc(NC(=O)C(CC(F)F)c4ccc(F)cc4)c3)c(-c3ccccc3)c2C1=O (single isomer, unassigned) [Example 3]
Outgoing: 8.23

Incoming: Return reported pIC50; argument: COCCNC(=O)c1ccc(CC(=O)Nc2cc(-c3[nH]c4ccn(C)c(=O)c4c3-c3ccc(F)cc3)ccn2)cc1 [Example 142]
Outgoing: 8.42

Incoming: Return reported pIC50; argument: Cc1ccc(-c2c(-c3ccnc(NC(=O)Cc4ccc(F)cc4)c3)[nH]c3c2C(=O)NC(C)(C)C3)cc1 [Example 92]
Outgoing: 8.24

Incoming: Return reported pIC50; argument: Cn1ccc2[nH]c(-c3ccnc(NC(=O)C(CC(F)F)c4ccc(F)cc4)c3)c(-c3ccc(F)cc3)c2c1=O (racemic) [Example 107]
Outgoing: 8.36

Incoming: Return reported pIC50; argument: CN1CCc2[nH]c(-c3ccnc(NC(=O)C(CC(F)F)c4ccc(F)cc4)c3)c(-c3cccnc3)c2C1=O (single isomer, unassigned) [Example 11]
Outgoing: 8.33

Reference source for all entries: patent US20230322767A1
